# PROTOCOL_NOTES: Urinary excretion of phenolic metabolites after intake of the GCPE nutraceutical
# MEASUREMENT_CONDITIONS: urine; week 0; mean ± SEM, n = 9
Response key: true means Cumulative urinary excretion, Total 0–24 h >= 3 µmol; false means Cumulative urinary excretion, Total 0–24 h < 3 µmol.

The examples below pair each entry with its known result.
• COc1cc(/C=C/C(=O)O[C@@H]2C[C@@](O)(C(=O)O)C[C@@H](O)[C@@H]2O)ccc1O [5-Feruloylquinic acid] = false
• COc1cc(/C=C/C(=O)OC2[C@H](O)CC(O)(C(=O)O)C[C@H]2O)ccc1O (some centres unmarked) = false
• COc1ccc(/C=C/C(=O)O)cc1O [iFA, 3′-Hydroxy-4′-methoxycinnamic acid] = false
• COc1ccc(CCC(=O)O)cc1O = true
• O=C(O)Cc1cccc(O)c1 [3′-Hydroxyphenylacetic acid] = true
• O=C(O)CCc1ccc(O)c(O[C@@H]2O[C@H](C(=O)O)[C@@H](O)[C@H](O)[C@H]2O)c1 [DHCA-3′-glucuronide] = false

Could you now look at the following compound, please?
Hi team, for `COc1ccc(/C=C/C(=O)NCC(=O)O)cc1O` , is the recorded Cumulative urinary excretion, Total 0–24 h at or above 3 µmol?
false

---

# PROTOCOL_NOTES: Fecal excretion of phenolic metabolites after intake of the GCPE nutraceutical
# MEASUREMENT_CONDITIONS: feces; 24 h; week 0
READOUT_TYPE: Amount of fecal metabolite excreted at 24 h

Guide cases for Amount of fecal metabolite excreted at 24 h, answers given:
• COc1cc(CCC(=O)O)ccc1O = 0.019 ± 0.007 µmol/g
• O=C(O)c1ccc(O)c(O)c1 [3,4-Dihydroxybenzoic acid] = 0.018 ± 0.005 µmol/g
• O=C(O)CCc1ccc(O)c(O)c1 [DHCA, 3-(3′,4′-Dihydroxyphenyl)propanoic acid] = 0.008 ± 0.006 µmol/g
• COc1cc(/C=C/C(=O)O[C@@H]2C[C@@](O)(C(=O)O)C[C@@H](O)[C@@H]2O)ccc1O [5-Feruloylquinic acid] = 0.002 ± 0.001 µmol/g

Query molecule follows.
Please give the measured Amount of fecal metabolite excreted at 24 h for this molecule: O=C(O)/C=C/c1ccc(O)c(O)c1 [CA, 3′,4′-Dihydroxycinnamic acid]
0.0003 ± 0.0003 µmol/g

---

# PROTOCOL_NOTES: Plasma pharmacokinetics of phenolic metabolites after intake of the GCPE nutraceutical (LC-MS-QToF)
# MEASUREMENT_CONDITIONS: week 8, first peak where biphasic
READOUT_TYPE: Tmax (h) or Range
Kindly provide the numeric value in h only, without the unit symbol.

* COc1cc(CC(=O)O)ccc1O [4′-Hydroxy-3′-methoxyphenylacetic acid] | 4
* O=C(O)CNC(=O)c1ccc(O)cc1 [4′-Hydroxyhippuric acid] | 8
* COc1ccc(CCC(=O)O)cc1O[C@@H]1O[C@H](C(=O)O)[C@@H](O)[C@H](O)[C@H]1O [DHiFA-3′-glucuronide] | 8.1
* COc1cc(C=CC(=O)O)ccc1OC1OC(C(=O)O)C(O)C(O)C1O (centres unmarked) [FA-4′-glucuronide, 3′-Methoxycinnamic acid-4′-glucuronide] | 1.2
* COc1ccc(CCC(=O)O)cc1OS(=O)(=O)O [DHiFA-3′-sulfate] | 11.6
* COc1cc(C=CC(=O)O)ccc1OS(=O)(=O)O [FA-4′-sulfate, 3′-Methoxycinnamic acid-4′-sulfate] | 0.56
* COc1cc(/C=C/C(=O)NCC(=O)O)ccc1O | 8.4

Please give the measured Tmax (h) or Range for this compound: COc1cc(/C=C/C(=O)OC2[C@H](O)CC(O)(C(=O)O)C[C@H]2O)ccc1O (some centres unmarked)
0.9

---

# PROTOCOL_NOTES: Fecal excretion of phenolic metabolites after intake of the GCPE nutraceutical
# MEASUREMENT_CONDITIONS: feces; 24 h; week 0
READOUT_TYPE: Amount of fecal metabolite excreted at 24 h (µmol/g)
Kindly provide the numeric value in µmol/g only, without the unit symbol.

Guide cases for Amount of fecal metabolite excreted at 24 h, answers given:
- O=C(O)c1cccc(O)c1 [3-Hydroxybenzoic acid]: 0.03
- O=C(O)c1ccc(O)cc1 [4-Hydroxybenzoic acid]: 0.0006
- O=C(CCc1ccc(O)c(O)c1)OC1CC(O)(C(=O)O)CC(O)C1O (stereo not drawn) [5-Dihydrocaffeoylquinic acid]: 0.05

Please give the measured Amount of fecal metabolite excreted at 24 h for this molecule: O=C(O)CCc1cccc(O)c1 [DHiCoA, 3-(3′-Hydroxyphenyl)propanoic acid]
0.24

Please give the measured Amount of fecal metabolite excreted at 24 h for this molecule: O=C(O)CCc1ccc(O)cc1 [DHCoA, 3-(4′-Hydroxyphenyl)propanoic acid]
0.005

Please give the measured Amount of fecal metabolite excreted at 24 h for this molecule: COc1cc(CC(=O)O)ccc1O [4′-Hydroxy-3′-methoxyphenylacetic acid]
0.02

---

# PROTOCOL_NOTES: Urinary excretion of phenolic metabolites after intake of the GCPE nutraceutical
# MEASUREMENT_CONDITIONS: week 0, interval 11–24 h
READOUT_TYPE: Amount excreted in urine, 11-24 h (µmol)
Kindly provide the numeric value in µmol only, without the unit symbol.

Guide cases for Amount excreted in urine, 11-24 h, answers given:
* O=C(O)CCc1ccc(O)c(O)c1 [DHCA, 3-(3′,4′-Dihydroxyphenyl)propanoic acid] | 7
* O=C(CCc1ccc(O)c(O)c1)OC1CC(O)(C(=O)O)CC(O)C1O (stereo not shown) [3-Dihydrocaffeoylquinic acid] | 0.17
* O=C(O)CNC(=O)c1cccc(O)c1 [3′-Hydroxyhippuric acid] | 11

Query compound follows.
Please give the measured Amount excreted in urine, 11-24 h for this compound: COc1cc(CCC(=O)OC2C(O)CC(O)(C(=O)O)CC2O)ccc1O (stereo not shown) [4-Dihydroferuloylquinic acid]
0.019

---

# Cmax listing for each entry below
# PROTOCOL_NOTES: Plasma pharmacokinetics of phenolic metabolites after intake of the GCPE nutraceutical (LC-MS-QToF)
# MEASUREMENT_CONDITIONS: week 8, GCPE nutraceutical with 300 mg hydroxycinnamic acids, mean ± SEM, n = 9

- COc1cc(CCC(=O)O)ccc1O[C@@H]1O[C@H](C(=O)O)[C@@H](O)[C@H](O)[C@H]1O [DHFA-4′-glucuronide]: 120 nM
- O=C(O)/C=C/c1ccc(OS(=O)(=O)O)cc1 [CoA-4′-sulfate, Cinnamic acid-4′-sulfate]: 30 nM
- O=C(O)Cc1cccc(O)c1 [3′-Hydroxyphenylacetic acid]: 150 nM

Query molecule follows.
Please give the measured Cmax for this molecule: O=C(O)CCc1ccc(OS(=O)(=O)O)c(O)c1 [DHCA-4′-sulfate]
330 nM

---

# PROTOCOL_NOTES: Urinary excretion of phenolic metabolites after intake of the GCPE nutraceutical
# MEASUREMENT_CONDITIONS: week 8, interval 9–11 h
# log10 of Amount excreted in urine, 9-11 h listing for each entry below
In plain terms, each number is the log10 of measured Amount excreted in urine, 9-11 h in µmol.

Guide cases for log10 of Amount excreted in urine, 9-11 h, answers given:
* COc1cc(CCC(=O)O)ccc1O | -1.05
* COc1cc(CCC(=O)OC2CC(O)(C(=O)O)CC(O)C2O)ccc1O (stereo not drawn) [3-Dihydroferuloylquinic acid] | -1.10
* COc1ccc(CCC(=O)O)cc1O[C@@H]1O[C@H](C(=O)O)[C@@H](O)[C@H](O)[C@H]1O [DHiFA-3′-glucuronide] | -0.10
* COc1ccc(/C=C/C(=O)NCC(=O)O)cc1O | -1.22
* O=C(O)/C=C/c1ccc(O)c(OS(=O)(=O)O)c1 [CA-3′-sulfate, 4′Hydroxycinnamic acid-3′-sulfate] | -0.15

Please give the measured log10 of Amount excreted in urine, 9-11 h for this molecule: O=C(O)CNC(=O)c1cccc(O)c1 [3′-Hydroxyhippuric acid]
0.70

Please give the measured log10 of Amount excreted in urine, 9-11 h for this molecule: O=C(/C=C/c1ccc(O)c(O)c1)OC1[C@H](O)CC(O)(C(=O)O)C[C@H]1O (stereo partly drawn)
-1.30

Please give the measured log10 of Amount excreted in urine, 9-11 h for this molecule: O=C(O)CCc1ccc(O)c(OS(=O)(=O)O)c1 [DHCA-3′-sulfate]
0.48

Please give the measured log10 of Amount excreted in urine, 9-11 h for this molecule: O=C(O)c1cccc(O)c1 [3-Hydroxybenzoic acid]
-1.15

---

# PROTOCOL_NOTES: Urinary excretion of phenolic metabolites after intake of the GCPE nutraceutical
# MEASUREMENT_CONDITIONS: week 8, interval 9–11 h
READOUT_TYPE: Amount excreted in urine, 9-11 h (µmol)
Kindly provide the numeric value in µmol only, without the unit symbol.

Guide cases for Amount excreted in urine, 9-11 h, answers given:
• COc1cc(/C=C/C(=O)NCC(=O)O)ccc1O = 3
• O=C(/C=C/c1ccc(O)c(O)c1)O[C@@H]1C[C@@](O)(C(=O)O)C[C@@H](O)[C@@H]1O = 0.009
• COc1cc(CCC(=O)OC2C(O)CC(O)(C(=O)O)CC2O)ccc1O (stereo not shown) [4-Dihydroferuloylquinic acid] = 0.003
• COc1cc(/C=C/C(=O)O[C@@H]2C[C@@](O)(C(=O)O)C[C@@H](O)[C@@H]2O)ccc1O [5-Feruloylquinic acid] = 0.05

Please give the measured Amount excreted in urine, 9-11 h for this compound: O=C(O)/C=C/c1ccc(O)c(O)c1 [CA, 3′,4′-Dihydroxycinnamic acid]
0.06

Please give the measured Amount excreted in urine, 9-11 h for this compound: O=C(CCc1ccc(O)c(O)c1)OC1CC(O)(C(=O)O)CC(O)C1O (stereo not shown) [5-Dihydrocaffeoylquinic acid]
0.002

Please give the measured Amount excreted in urine, 9-11 h for this compound: O=C(O)CNC(=O)c1ccc(O)cc1 [4′-Hydroxyhippuric acid]
1.1

Please give the measured Amount excreted in urine, 9-11 h for this compound: O=C(CCc1ccc(O)c(O)c1)OC1C(O)CC(O)(C(=O)O)CC1O (stereo not shown) [4-Dihydrocaffeoylquinic acid]
0.004

Please give the measured Amount excreted in urine, 9-11 h for this compound: COc1cc(CC(=O)O)ccc1O [4′-Hydroxy-3′-methoxyphenylacetic acid]
0.68

Please give the measured Amount excreted in urine, 9-11 h for this compound: COc1cc(C=CC(=O)O)ccc1OC1OC(C(=O)O)C(O)C(O)C1O (stereo not shown) [FA-4′-glucuronide, 3′-Methoxycinnamic acid-4′-glucuronide]
0.8

Please give the measured Amount excreted in urine, 9-11 h for this compound: O=C(O)CCc1ccc(O)c(O)c1 [DHCA, 3-(3′,4′-Dihydroxyphenyl)propanoic acid]
3.1

Please give the measured Amount excreted in urine, 9-11 h for this compound: `COc1ccc(CCC(=O)O)cc1O`
0.7

Please give the measured Amount excreted in urine, 9-11 h for this compound: O=C(O)CCc1ccc(OS(=O)(=O)O)cc1 [DHCoA-4′-sulfate, 3-(Phenyl)propanoic acid-4′-sulfate]
5

Please give the measured Amount excreted in urine, 9-11 h for this compound: O=C(O)Cc1cccc(O)c1 [3′-Hydroxyphenylacetic acid]
0.6

Please give the measured Amount excreted in urine, 9-11 h for this compound: COc1ccc(CCC(=O)O)cc1OC [Dihydrodimethoxycinnamic acid, 3-(3′,4′-Dimethoxyphenyl)propanoic acid]
0.12

Please give the measured Amount excreted in urine, 9-11 h for this compound: COc1ccc(CCC(=O)O)cc1OS(=O)(=O)O [DHiFA-3′-sulfate]
0.11
